Source of measurements: ChEMBL document CHEMBL1143667

Target: Delta-type opioid receptor (Homo sapiens)
Sequence (P41143 whole entry): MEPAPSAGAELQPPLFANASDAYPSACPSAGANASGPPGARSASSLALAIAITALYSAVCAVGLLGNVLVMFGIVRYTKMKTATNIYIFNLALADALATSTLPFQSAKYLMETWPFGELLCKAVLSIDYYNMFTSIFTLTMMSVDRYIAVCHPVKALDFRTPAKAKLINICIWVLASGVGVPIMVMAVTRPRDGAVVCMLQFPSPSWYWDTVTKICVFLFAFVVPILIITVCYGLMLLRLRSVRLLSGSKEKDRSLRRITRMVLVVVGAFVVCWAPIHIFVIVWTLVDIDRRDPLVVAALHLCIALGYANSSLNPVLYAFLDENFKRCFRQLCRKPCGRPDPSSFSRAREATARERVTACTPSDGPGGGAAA
Assay: Agonist activity at human delta opioid receptor expressed in CHO membrane assessed as stimulation of [35S]GTP-gamma-S binding
Format: functional, cell membranes

Line Notation	Target	Unit String	Emax
CN1CC[C@]23Cc4nc(N)sc4C[C@H]2[C@H]1Cc1ccc(O)cc13	Delta-type opioid receptor (Homo sapiens)	%	67
COc1ccc2c(c1)[C@]13CCN(CC4CC4)[C@H](C2)[C@@H]1Cc1c([nH]c2ccccc12)C3	Delta-type opioid receptor (Homo sapiens)	%	56
CN1CC[C@]23Cc4[nH]c5ccccc5c4C[C@H]2[C@H]1Cc1ccc(O)cc13	Delta-type opioid receptor (Homo sapiens)	%	23
Oc1ccc2c(c1)[C@]13CCN(CC4CC4)[C@H](C2)[C@@H]1Cc1c([nH]c2ccccc12)C3	Delta-type opioid receptor (Homo sapiens)	%	22
Nc1nc2c(s1)C[C@H]1[C@H]3Cc4ccc(O)cc4[C@@]1(CCN3CC1CCC1)C2	Delta-type opioid receptor (Homo sapiens)	%	51
Nc1nc2c(s1)C[C@H]1[C@H]3Cc4ccc(O)cc4[C@@]1(CCN3CC1CC1)C2	Delta-type opioid receptor (Homo sapiens)	%	49
COc1ccc2c(c1)[C@]13CCN(CC4CCC4)[C@H](C2)[C@@H]1Cc1c([nH]c2ccccc12)C3	Delta-type opioid receptor (Homo sapiens)	%	54
Oc1ccc2c(c1)[C@]13CCN(CC4CCC4)[C@H](C2)[C@@H]1Cc1c([nH]c2ccccc12)C3	Delta-type opioid receptor (Homo sapiens)	%	37

###

EC50: recorded values
Target: Kappa-type opioid receptor (Homo sapiens)
Assay: Agonist activity at human kappa opioid receptor expressed in CHO membrane assessed as stimulation of [35S]GTP-gamma-S binding

Line Notation	EC50 [nM]
COc1ccc2c(c1)[C@]13CCN(CC4CC4)[C@H](C2)[C@@H]1Cc1c([nH]c2ccccc12)C3	24
Oc1ccc2c(c1)[C@]13CCN(CC4CC4)[C@H](C2)[C@@H]1Cc1c([nH]c2ccccc12)C3	61
Nc1nc2c(s1)C[C@H]1[C@H]3Cc4ccc(O)cc4[C@@]1(CCN3CC1CC1)C2	0.34
CN1CC[C@]23Cc4nc(N)sc4C[C@H]2[C@H]1Cc1ccc(O)cc13	21
Nc1nc2c(s1)C[C@H]1[C@H]3Cc4ccc(O)cc4[C@@]1(CCN3CC1CCC1)C2	2.6
Oc1ccc2c(c1)[C@]13CCN(CC4CCC4)[C@H](C2)[C@@H]1Cc1c([nH]c2ccccc12)C3	190

###

Target: Kappa-type opioid receptor (Homo sapiens, UniProt P41145)
Sequence (P41145 whole entry): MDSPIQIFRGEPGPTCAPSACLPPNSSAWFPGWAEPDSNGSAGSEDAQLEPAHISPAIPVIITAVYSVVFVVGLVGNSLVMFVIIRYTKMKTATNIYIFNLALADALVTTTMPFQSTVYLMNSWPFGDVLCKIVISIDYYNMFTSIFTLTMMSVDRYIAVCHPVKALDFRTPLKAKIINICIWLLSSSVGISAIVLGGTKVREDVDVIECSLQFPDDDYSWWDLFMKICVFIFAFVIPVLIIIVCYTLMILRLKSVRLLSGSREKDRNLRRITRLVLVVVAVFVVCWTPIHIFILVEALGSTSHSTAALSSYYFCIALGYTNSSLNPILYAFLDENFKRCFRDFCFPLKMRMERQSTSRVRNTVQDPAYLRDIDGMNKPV
Assay: Antagonist activity at human kappa opioid receptor expressed in CHO membrane assessed as inhibition of U50488-induced [35S]GTP-gamma-S binding
pIC50: −log10 of the molar value.

Line Notation	pIC50
Oc1ccc2c(c1)[C@]13CCN(CC4CC4)[C@H](C2)[C@@H]1Cc1c([nH]c2ccccc12)C3	7.77
Nc1nc2c(s1)C[C@H]1[C@H]3Cc4ccc(O)cc4[C@@]1(CCN3CC1CCC1)C2	7.03

###

Target: Opioid receptors; mu & kappa (Homo sapiens) (UniProt P41145+P35372)
Sequence (P35372 whole entry, looked up): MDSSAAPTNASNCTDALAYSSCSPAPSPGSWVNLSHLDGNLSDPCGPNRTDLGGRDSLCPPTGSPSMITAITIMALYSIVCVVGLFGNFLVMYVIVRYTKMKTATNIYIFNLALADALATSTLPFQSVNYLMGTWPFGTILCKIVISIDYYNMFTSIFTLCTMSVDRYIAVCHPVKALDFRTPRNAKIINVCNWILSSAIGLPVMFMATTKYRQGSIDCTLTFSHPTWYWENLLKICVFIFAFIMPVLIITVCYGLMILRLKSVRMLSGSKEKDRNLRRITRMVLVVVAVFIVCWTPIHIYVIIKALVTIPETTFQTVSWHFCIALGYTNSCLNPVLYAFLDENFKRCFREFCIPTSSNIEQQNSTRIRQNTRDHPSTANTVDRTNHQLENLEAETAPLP
Sequence (P41145 whole entry, looked up): as the sequence (P41145 whole entry) above
Assay: Selectivity for human kappa opioid receptor over human mu opioid receptor
Type: protein assay
Labelling field: enter YES if recorded Ratio Ki is less than 2. Enter NO if it equals or exceeds that cut-off.

Line Notation	Category
CN1CC[C@]23Cc4nc(N)sc4C[C@H]2[C@H]1Cc1ccc(O)cc13	YES
COc1ccc2c(c1)[C@]13CCN(C)[C@H](C2)[C@@H]1Cc1c([nH]c2ccccc12)C3	YES
Oc1ccc2c(c1)[C@]13CCN(CC4CCC4)[C@H](C2)[C@@H]1Cc1c([nH]c2ccccc12)C3	NO
COc1ccc2c(c1)[C@]13CCN(CC4CC4)[C@H](C2)[C@@H]1Cc1c([nH]c2ccccc12)C3	NO
COc1ccc2c(c1)[C@]13CCN(CC4CCC4)[C@H](C2)[C@@H]1Cc1c([nH]c2ccccc12)C3	NO
CN1CC[C@]23Cc4[nH]c5ccccc5c4C[C@H]2[C@H]1Cc1ccc(O)cc13	YES
Nc1nc2c(s1)C[C@H]1[C@H]3Cc4ccc(O)cc4[C@@]1(CCN3CC1CCC1)C2	NO
